# procedure.details: protein stability index of a GFP-peptide fusion (GPS, HEK-293T) (PSI 1-6); higher = more stable;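 note: 24-mer peptide tiles fused after GFP, lentivirally expressed, FACS-sorted into six equal bins by GFP/DsRed ratio, decoded by Illumina sequencing, PSI is the read-weighted mean bin number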
# test.context: treatment: MLN4924 1 uM, 8 h; c terminus: a fixed tail appended
measured.quantity: protein stability index

[
  {
    "primary.sequence": "DDPSLLKEAKTKYPNYEFISDNSI [FUT8]",
    "measured.quantity": "protein stability index",
    "recorded.measurement": 4.04
  },
  {
    "primary.sequence": "FEQYCAWQLFLAHNIPLETIIPIL [INTS3]",
    "measured.quantity": "protein stability index",
    "recorded.measurement": 2.85
  },
  {
    "primary.sequence": "RKRMGTRRGRHEQSPTSRPRKVSS [C22orf15]",
    "measured.quantity": "protein stability index",
    "recorded.measurement": 4.59
  },
  {
    "primary.sequence": "SSSYSVSSPRSVDSYSSTQHVPEE [ATF6]",
    "measured.quantity": "protein stability index",
    "recorded.measurement": 4.99
  },
  {
    "primary.sequence": "ESGVSVSNSQPTNESHSIKAILKN [SLC29A1]",
    "measured.quantity": "protein stability index",
    "recorded.measurement": 4.9
  },
  {
    "primary.sequence": "EKAAALERQLKVMASDHREALLDR [LRRC45]",
    "measured.quantity": "protein stability index",
    "recorded.measurement": 4.49
  },
  {
    "primary.sequence": "SDLNEVPVKELAALPKATILDLSC [LRRC59]",
    "measured.quantity": "protein stability index",
    "recorded.measurement": 4.01
  },
  {
    "primary.sequence": "TSFPGRGSIPEFFHIMKRKFTNKE [AASDHPPT]",
    "measured.quantity": "protein stability index",
    "recorded.measurement": 3.21
  },
  {
    "primary.sequence": "LVGDSDVGKGEILESLQDGAAESP [RAB40C]",
    "measured.quantity": "protein stability index",
    "recorded.measurement": 5.39
  },
  {
    "primary.sequence": "NDVRQSANYTCVAMSTLGVIEAIA [PTPRD]",
    "measured.quantity": "protein stability index",
    "recorded.measurement": 2.19
  },
  {
    "primary.sequence": "LQAFGETLLLELEQDSGVQVEGLT [ADAMTS4]",
    "measured.quantity": "protein stability index",
    "recorded.measurement": 3.79
  },
  {
    "primary.sequence": "TMLTVIEQPVPPTPATPEDPAPLW [EMID1]",
    "measured.quantity": "protein stability index",
    "recorded.measurement": 3.77
  },
  {
    "primary.sequence": "LEQFLSILPKELQGWVREHCPESG [ZSCAN9]",
    "measured.quantity": "protein stability index",
    "recorded.measurement": 2.71
  },
  {
    "primary.sequence": "KKHKNSQLDKNSEVYQEVQAMFDT [FAM98B]",
    "measured.quantity": "protein stability index",
    "recorded.measurement": 4.27
  },
  {
    "primary.sequence": "PNTYYEGGYFKARLKFPIDYPYSP [CDC34]",
    "measured.quantity": "protein stability index",
    "recorded.measurement": 2.39
  },
  {
    "primary.sequence": "DFGLAKEYIDPETKKHIPYREHKS [CSNK1G1]",
    "measured.quantity": "protein stability index",
    "recorded.measurement": 4.34
  },
  {
    "primary.sequence": "GPAGPYLLSKKGALQSRAAQRHRG [PLEKHN1]",
    "measured.quantity": "protein stability index",
    "recorded.measurement": 3.98
  },
  {
    "primary.sequence": "LELGHWLYQTELVENECYQVFLDR [TOR1AIP2]",
    "measured.quantity": "protein stability index",
    "recorded.measurement": 2.26
  }
]
